- Target or system: HDAC2 (Homo sapiens (Human))
- Sequence (Q92769 whole entry): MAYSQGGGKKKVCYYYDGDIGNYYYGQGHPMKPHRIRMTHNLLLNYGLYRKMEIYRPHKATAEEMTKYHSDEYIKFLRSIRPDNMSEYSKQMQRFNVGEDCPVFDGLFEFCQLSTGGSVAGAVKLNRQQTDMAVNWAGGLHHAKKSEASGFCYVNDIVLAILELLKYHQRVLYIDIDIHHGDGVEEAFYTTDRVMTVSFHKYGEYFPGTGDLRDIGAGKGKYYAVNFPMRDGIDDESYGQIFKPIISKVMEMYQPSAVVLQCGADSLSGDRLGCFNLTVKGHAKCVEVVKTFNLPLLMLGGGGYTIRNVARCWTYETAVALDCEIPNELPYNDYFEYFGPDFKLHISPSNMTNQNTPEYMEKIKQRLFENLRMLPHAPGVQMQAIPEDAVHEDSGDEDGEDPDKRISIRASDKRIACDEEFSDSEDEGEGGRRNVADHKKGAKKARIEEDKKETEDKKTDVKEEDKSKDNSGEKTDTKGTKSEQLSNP
- Measurement notes: HDAC2 in vitro inhibition, dose response
- Type: biochemical
- Recorded conditions: Table 2; read-out: HDAC 2 IC50
Measured parameter: IC50 (µM)

a. CCCCNNC(=O)c1ccc([N+](=O)[O-])cc1 [RLS2-128, N′-butyl-4-nitrobenzohydrazide]
b. CCCCNNC(=O)c1cccnc1 [RLS2-289, N′-butylnicotinohydrazide]
c. CCCCNNC(=O)c1ccncc1 [RLS2-290, N′-butylisonicotinohydrazide]
Exercise: # rank_down: sort by IC50, max first Hello, could you send the labels back in the order asked? Thank you.
Solution: b, a, c
(b: 56.7 µM, a: 21.2 µM, c: 13.7 µM)

P. CCCCNNC(=O)c1ccc(OCC)c(OCC)c1 [RLS3-14, N′-butyl-3,4-diethoxybenzohydrazide]
Q. CCCNNC(=O)c1ccc(Br)cc1 [RLS2-137, 4-bromo-N′-propylbenzohydrazide]
Exercise: I'd appreciate it if you could identify which of P and Q has the greater IC50. Give the label of your selection.
Solution: P
